Reference source: paper PMC11126915

Test system: iATPSnFR2.A95K
Construct: epsilon subunit residues 1-109, linker 1 VLVG, cpSFGFP, linker 2 ICV, residues 110-129, C-terminal HaloTag conjugated to JFX650
Experiment: Separate head-to-head equilibrium fluorescence titration of 0.2 µM purified sensor HaloTag-JFX650 conjugate with ATP and other nucleoside triphosphates (ex 485 nm, em 535 nm) in Mammalian Cell Imaging Buffer, pH 7.2.
Conditions: n = 3; read-out: Binding curve fits, in µM, for ATP, CTP, GTP (binding specificity)
Description: Purified protein was mixed with 1.1 molar equivalents of JFX650 HaloTag ligand and incubated at room temperature for 1 h and then at 4 °C overnight. Excess HaloTag ligand was removed by gel filtration on a PD-10 column (GE Life Sciences) and reconcentrated by ultrafiltration. […]
Kindly supply the reported Kd values for the records listed here.
Include the unit right after the number.

I'd like to know its Kd. The compound in question is Nc1ccn([C@@H]2O[C@H](COP(=O)(O)OP(=O)(O)OP(=O)(O)O)[C@@H](O)[C@H]2O)c(=O)n1 [CTP, cytidine triphosphate] 100 µM

I'd like to know its Kd. The compound in question is Nc1nc2c(ncn2[C@@H]2O[C@H](COP(=O)(O)OP(=O)(O)OP(=O)(O)O)[C@@H](O)[C@H]2O)c(=O)[nH]1 [GTP, guanosine triphosphate] 1500 µM

I'd like to know its Kd. The compound in question is Nc1ncnc2c1ncn2[C@@H]1O[C@H](COP(=O)(O)OP(=O)(O)OP(=O)(O)O)[C@@H](O)[C@H]1O [ATP, adenosine triphosphate] 30 µM
